Kindly state EC50 group, cGMP in GTM-3 cells for each of the entries shown.
Biological target: T1, natriuretic peptide receptor-B (human)
T1 chain: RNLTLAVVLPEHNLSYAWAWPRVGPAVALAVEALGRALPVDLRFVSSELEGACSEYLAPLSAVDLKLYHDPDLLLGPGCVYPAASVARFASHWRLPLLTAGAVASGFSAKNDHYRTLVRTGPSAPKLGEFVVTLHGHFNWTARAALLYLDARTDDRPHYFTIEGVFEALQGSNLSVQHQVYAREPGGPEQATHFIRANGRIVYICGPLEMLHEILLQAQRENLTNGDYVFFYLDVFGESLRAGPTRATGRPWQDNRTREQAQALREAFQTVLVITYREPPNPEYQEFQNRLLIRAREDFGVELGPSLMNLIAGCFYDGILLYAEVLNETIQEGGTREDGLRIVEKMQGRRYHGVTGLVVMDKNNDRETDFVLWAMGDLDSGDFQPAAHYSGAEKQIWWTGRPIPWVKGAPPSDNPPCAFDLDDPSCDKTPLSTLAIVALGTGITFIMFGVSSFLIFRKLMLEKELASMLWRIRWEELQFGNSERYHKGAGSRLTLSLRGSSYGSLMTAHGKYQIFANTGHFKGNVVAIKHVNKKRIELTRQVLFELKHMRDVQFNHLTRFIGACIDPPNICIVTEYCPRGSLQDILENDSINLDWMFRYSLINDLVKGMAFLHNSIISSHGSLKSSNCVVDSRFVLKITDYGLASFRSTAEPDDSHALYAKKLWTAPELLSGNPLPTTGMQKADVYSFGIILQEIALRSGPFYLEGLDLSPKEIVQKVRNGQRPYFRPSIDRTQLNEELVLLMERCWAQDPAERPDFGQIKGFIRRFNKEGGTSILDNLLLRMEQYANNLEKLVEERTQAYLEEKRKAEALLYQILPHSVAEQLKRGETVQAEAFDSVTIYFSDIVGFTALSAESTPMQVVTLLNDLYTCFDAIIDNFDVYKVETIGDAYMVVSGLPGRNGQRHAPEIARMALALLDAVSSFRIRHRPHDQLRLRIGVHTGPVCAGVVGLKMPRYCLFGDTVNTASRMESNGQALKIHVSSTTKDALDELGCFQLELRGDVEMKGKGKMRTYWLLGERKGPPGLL
Test: cell-based or functional assay
Numbered stars: 1 amine (or outer) side, 2 acyl side, 3 side chain; on linkers, the order of the positions; unused ones are H or OH. Square brackets hold non-standard residues; d marks the D form. Ends that are not written are not given here. * marks the point of attachment. Tap(Ae) = (2S,4R)-4-(2-aminoethylamino)pyrrolidine-2-carboxylic acid, O=C([C@@H]1C[C@@H](NCCN[*:3])CN1[*:1])[*:2]; Sni = (S)-nipecotic acid, O=C([C@H]1CCCN([*:1])C1)[*:2]; Hyp = O=C(O)[C@@H]1C[C@@H](O)CN1; NMeL = CN[C@@H](CC(C)C)C(=O)O; Octanoyl = CCCCCCCC(=O)*; Ac5c = NC1(C(=O)O)CCCC1; 565 = not defined here; Che = not defined here; Hexanoyl = CCCCCC(=O)*; Occ = octanoic acid

Octanoyl-[Sni]FRL[Hyp][NMeL]DRI-NH2 (not fully specified (some residues); printed as Occ-Sni-Phe-arg-Leu-Hyp-Nml-Asp-Arg-Ile-NH2) [JAL-1255]: ≤ 1000 nM
Octanoyl-[dA][dA]FGLKLDR[565] (reading uncertain; also: printed as Occ-ala-ala-Phe-Gly-Leu-Lys-Leu-Asp-Arg-565) [JAL-0752]: ≤ 5000 nM
[Occ][Sni]FLL[Tap(Ae)][NMeL]DR[Che] (not fully specified (residue 4); printed as Occ-Sni-Phe-leu-Leu-Tap(Ae)-Nml-Asp-Arg-Che; reading uncertain) [JAL-1681]: ≤ 1000 nM

Alright, here's another binder for you.
-- ask // Input: Hexanoyl-[dA][dA]FGLKLDR[Ac5c]-NH2 [JAL-0692] . Output its EC50 group, cGMP in GTM-3 cells only.
-- reply ≤ 15000 nM

Attribution: patent US9187525B2
